Target: plasmin (pig) (Sus scrofa)
Sequence (P06867 97-809): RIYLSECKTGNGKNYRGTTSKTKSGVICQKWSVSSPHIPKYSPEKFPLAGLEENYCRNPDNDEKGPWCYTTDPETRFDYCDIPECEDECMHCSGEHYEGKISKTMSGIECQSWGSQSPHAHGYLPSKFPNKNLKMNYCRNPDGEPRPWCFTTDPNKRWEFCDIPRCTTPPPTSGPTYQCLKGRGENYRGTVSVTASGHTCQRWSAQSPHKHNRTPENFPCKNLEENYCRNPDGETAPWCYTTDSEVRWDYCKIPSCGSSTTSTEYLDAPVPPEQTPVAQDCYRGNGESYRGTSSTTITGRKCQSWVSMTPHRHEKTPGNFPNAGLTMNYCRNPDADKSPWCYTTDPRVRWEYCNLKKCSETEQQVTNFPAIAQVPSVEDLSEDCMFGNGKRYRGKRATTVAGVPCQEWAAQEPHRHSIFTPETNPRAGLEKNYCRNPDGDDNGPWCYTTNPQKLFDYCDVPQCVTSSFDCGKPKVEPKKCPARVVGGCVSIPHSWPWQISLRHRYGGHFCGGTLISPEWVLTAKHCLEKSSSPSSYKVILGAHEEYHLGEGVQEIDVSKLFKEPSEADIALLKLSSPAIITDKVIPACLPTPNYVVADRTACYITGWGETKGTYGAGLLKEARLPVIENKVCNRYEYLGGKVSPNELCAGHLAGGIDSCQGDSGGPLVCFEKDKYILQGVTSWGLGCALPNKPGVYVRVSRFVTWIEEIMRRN
Test: Km, Vmax and Vmax/Km of substrates for plasmin (pig)
Type: biochemical, Porcine (pig)
Conditions: TABLE 2; V/Km of each sample divided by that of S2251 (so in the source)
property.label: Relative ratio
Lab note: write the figure by itself, no unit.

molecule="Cc1ccc(S(=O)(=O)NCCCC[C@@H](N)C(=O)N[C@@H](Cc2ccccc2)C(=O)N[C@@H](CCCCN)C(=O)Nc2ccc(O)c(C(=O)O)c2)cc1 [NPC-7, 2HCl.H-D-Lys(ToS)-L-Phe-L-Lys-CHA]" test_result=128.468
molecule="NCCCC[C@H](NC(=O)[C@H](Cc1ccccc1)NC(=O)[C@H](N)CCCCNS(=O)(=O)c1ccccc1)C(=O)Nc1ccc(O)c(C(=O)O)c1 [NPC-15]" test_result=64.180

Problem: Query (molecule): NCCCC[C@H](NC(=O)[C@H](Cc1ccccc1)NC(=O)[C@H](N)CCCCNC(=O)OCc1ccccc1)C(=O)Nc1ccc(O)c(C(=O)O)c1 [NPC-20] ; field requested: Relative ratio
Solution: 74.040
